Measured values drawn from patent US20070213291A1 for this set.

I'd appreciate it if you could supply % INHIBITION of Jurkat human leukemia T cell proliferation values for the items below.
System: Jurkat human leukemia T cells
Assay: Inhibition of Jurkat human leukemia T cell proliferation (MTT reduction)
Type: cell-based
Conditions: 100 μg/ml sequence, 48 h, 2.5×10^5 cells/ml
Method: Cells were seeded in 6 (1 ml/well), 24 (0.5 ml/well) or 96 (0.1 ml/well) well flat-bottom microplates and were maintained at 37° C. in a 5% CO2 atmosphere. Unless stated otherwise, 2.5×10^5 cells/ml were incubated with 0 μg/ml (control) and 100 μg/ml (treated) of 2 to 45 base sequences containing A, C, G and T for 48 h. MTT was measured at a wavelength of 570 nm using a multiplate spectrophotometer reader (ELX800, Bio-TEK Instruments Inc., Winooski, Vt.). […]

Here TGTGTG [SEQ ID NO:9 phosphorothioate] (phosphorothioate backbone) was tested on Jurkat human leukemia T cells, and its % INHIBITION of Jurkat human leukemia T cell proliferation came to −17%

Here GoGsGoToGsGo was tested on Jurkat human leukemia T cells, and its % INHIBITION of Jurkat human leukemia T cell proliferation came to 11%

Here TCCATCGCCAAGGAGATCGAGCTGGAGGATCCGTACGAGAAGATC (unmodified DNA) [BCG A-3, reference compound] was tested on Jurkat human leukemia T cells, and its % INHIBITION of Jurkat human leukemia T cell proliferation came to 24%

Here GGAGGG (unmodified DNA) [SEQ ID NO:47] was tested on Jurkat human leukemia T cells, and its % INHIBITION of Jurkat human leukemia T cell proliferation came to 14%

Here TTGTTTTTTTTG (unmodified DNA) [SEQ ID NO:83] was tested on Jurkat human leukemia T cells, and its % INHIBITION of Jurkat human leukemia T cell proliferation came to 21%

Here ACGCCGACGTCGTCTGTGGTGGGGTGTCTACCGCCAACGCGACGG (unmodified DNA) [BCG M-3, reference compound] was tested on Jurkat human leukemia T cells, and its % INHIBITION of Jurkat human leukemia T cell proliferation came to 22%

Here GGGAGG (unmodified DNA) [SEQ ID NO:45] was tested on Jurkat human leukemia T cells, and its % INHIBITION of Jurkat human leukemia T cell proliferation came to 28%

Here GGGTGGG (unmodified DNA) [SEQ ID NO:63] was tested on Jurkat human leukemia T cells, and its % INHIBITION of Jurkat human leukemia T cell proliferation came to 28%

Here ACGAGACCACCATCGTCGAGGGCGCCGGTGACACCGACGCCATCG (unmodified DNA) [BCG A-6, reference compound] was tested on Jurkat human leukemia T cells, and its % INHIBITION of Jurkat human leukemia T cell proliferation came to 21%

Here GGGTGGGGGTGG [SEQ ID NO:68] was tested on Jurkat human leukemia T cells, and its % INHIBITION of Jurkat human leukemia T cell proliferation came to 18%

====

System: Jurkat human leukemia T cells
Assay: Inhibition of Jurkat human leukemia T cell proliferation (MTT reduction)
Type: cell-based
Conditions: 100 μg/ml sequence, 48 h, 2.5×10^5 cells/ml
# % INHIBITION of Jurkat human leukemia T cell proliferation binned as bottom range = under 10%, center range = from 10% up to 40%, top range = 40% and over

Input line: Input ACCGATGACGTCGCCGGTGACGGCAACACGACGGCCACCGTGCTG (unmodified DNA) [BCG A-4, reference compound] ; output its category
Output line: bottom range

Input line: Input GGGGGGGTGGGGGGGTGGGGGGGTGGG (unmodified DNA) [SEQ ID NO:4] ; output its category
Output line: center range

Input line: Input TTAGGG (phosphodiester backbone) [SEQ ID NO:49, reference compound] ; output its category
Output line: top range

Input line: Input GsGsGoToGsGs ; output its category
Output line: bottom range

Input line: Input GsGoGoToGoGs ; output its category
Output line: center range

Input line: Input TGGGTGG (unmodified DNA) [SEQ ID NO:64] ; output its category
Output line: top range

Input line: Input CGGTGC [SEQ ID NO:38] ; output its category
Output line: center range

Input line: Input AACCACAAGCCCAAC (DNA, backbone not given here) [SEQ ID NO:67] ; output its category
Output line: bottom range

Input line: Input GCCGAGAAGGTGCGCAACCTGCCGGCTGGCCACGGACTGAACGCT (unmodified DNA) [BCG A-7, reference compound] ; output its category
Output line: bottom range

Input line: Input GTGTGTGTGTGT [SEQ ID NO:14] ; output its category
Output line: top range

Input line: Input GGGGGG [SEQ ID NO:44] ; output its category
Output line: center range

Input line: Input GGCCGG [SEQ ID NO:43] ; output its category
Output line: center range

Input line: Input GGTTGG [SEQ ID NO:41] ; output its category
Output line: top range

Input line: Input GGTGGG [SEQ ID NO:24] ; output its category
Output line: top range

Input line: Input GTGTGTGTGTGTGTGTGT (unmodified DNA) [SEQ ID NO:18] ; output its category
Output line: top range

Input line: Input TGTGTGTGTGTGTGTGTG (unmodified DNA) [SEQ ID NO:17] ; output its category
Output line: top range

Input line: Input TTGTTT [SEQ ID NO:26] ; output its category
Output line: center range

Input line: Input GoGoGsTsGoGo ; output its category
Output line: center range

Input line: Input AAAGAGGGGCATGACCCGGTGCGGGGGTTCTTGCACTCGGCATAG (unmodified DNA) [BCG A-1, reference compound] ; output its category
Output line: bottom range
